- Test system: HEK293T cells
- assayName: Expression efficiency of capped luciferase mRNAs in HEK293T cells
- Format: cell-based
- measurementParameters: 6 h after transfection of capped luciferase mRNA; reading of N-7413 = 1 (Table 5)
measurementName: Relative fluorescence reading

| compound | Relative fluorescence reading |
| --- | --- |
| COCC1(F)C(COP(=O)(O)OP(=O)(O)CP(=O)(O)OCC2OC(n3cnc4c(N)ncnc43)C(OC)C2OP(=O)([O-])OCC2OC(n3cnc4c(=O)[nH]c(N)nc43)C(O)C2O)OC(n2c[n+](C)c3c(=O)[nH]c(N)nc32)C1O (stereo not drawn) [Compound D24] | 1.08 |
| COC1C(OP(=O)([O-])OCC2OC(n3cnc4c(=O)[nH]c(N)nc43)C(O)C2O)C(COP(=O)(O)OP(=O)(O)OP(=O)(O)OCC2OC(n3c[n+](C)c4c(=O)[nH]c(N)nc43)C(O)C2(C)F)OC1n1cnc2c(N)ncnc21 (stereo not drawn) [Compound D85] | 1.6 |
| COCC1(F)C(COP(=O)(O)OP(=O)(O)OP(=O)(O)OCC2OC(n3cnc4c(N)ncnc43)C(OC)C2OP(=O)([O-])OCC2OC(n3cnc4c(=O)[nH]c(N)nc43)C(O)C2O)OC(n2c[n+](Cc3ccc(Cl)cc3)c3c(=O)[nH]c(N)nc32)C1O (stereo not drawn) [Compound D92] | 1.78 |
| CO[C@@H]1[C@H](OP(=O)([O-])OC[C@H]2O[C@@H](n3cnc4c(=O)[nH]c(N)nc43)[C@H](O)[C@@H]2O)[C@@H](COP(=O)(O)OP(=O)(O)OP(=O)(O)OC[C@H]2O[C@@H](n3c[n+](C)c4c(=O)[nH]c(N)nc43)[C@H](O)[C@]2(F)CNC(C)=O)O[C@H]1n1cnc2c(N)ncnc21 [Compound D31] | 1.73 |
| COCC1(F)C(COP(=O)(O)OP(O)(=S)OP(=O)(O)OCC2OC(n3cnc4c(N)ncnc43)C(OC)C2OP(=O)([O-])OCC2OC(n3cnc4c(=O)[nH]c(N)nc43)C(O)C2O)OC(n2c[n+](C)c3c(=O)[nH]c(N)nc32)C1O (stereo not drawn) [Compound D97] | 2.05 |

Continue with the compound presented below.
Record COCC1(F)C(COP(=O)(O)OP(=O)(O)OP(=O)(O)OCC2OC(n3cnc4c(N)ncnc43)C(OC)C2OP(=O)([O-])OCC2OC(n3cnc4c(=O)[nH]c(N)nc43)C(O)C2O)OC(n2c[n+](Cc3ccc(F)cc3)c3c(=O)[nH]c(N)nc32)C1O (stereo not drawn) [Compound D91] has HEK293T cells Relative fluorescence reading equal to 1.93
